Reference source for all entries: patent US12018001B2

# study target: glucocorticoid receptor (Homo sapiens)
# method summary: Hep G2 TAT assay: induction of TAT by dexamethasone in HepG2 cells
pKi: −log10 of the molar value.
Returns rule met if the recorded pKi is greater than or equal to 7, and rule not met otherwise.

Task: Could you tell me if the measured pKi of O=c1[nH]c(C2CC=C(c3ccccc3C(F)(F)F)CC2)c(Cc2ccccc2)c(=O)[nH]1 (stereo not drawn) [Example 11] reaches 7 or more?
Result: rule met

Task: Could you tell me if the measured pKi of CCOc1ccc(C2=CCC(c3[nH]c(=O)[nH]c(=O)c3Cc3ccccc3)CC2)c(F)c1 (stereo not drawn) [Example 78] reaches 7 or more?
Result: rule not met

Task: Could you tell me if the measured pKi of COc1ccc(C#N)cc1C1=CCC(c2[nH]c(=O)[nH]c(=O)c2Cc2ccccc2)CC1 (stereo not drawn) [Example 23] reaches 7 or more?
Result: rule not met

Task: Could you tell me if the measured pKi of COc1ccc(F)cc1C1=CCC(c2[nH]c(=O)[nH]c(=O)c2Cc2ccccc2)CC1 (stereo not drawn) [Example 12] reaches 7 or more?
Result: rule not met

Task: Could you tell me if the measured pKi of Cc1ccc(F)cc1C1=CCC(c2[nH]c(=O)[nH]c(=O)c2Cc2ccccc2)CC1 (stereo not drawn) [Example 21] reaches 7 or more?
Result: rule not met

Task: Could you tell me if the measured pKi of Cc1ccncc1C1=CCC(c2[nH]c(=O)[nH]c(=O)c2Cc2ccccc2)CC1 (stereo not drawn) [Example 30] reaches 7 or more?
Result: rule met

Task: Could you tell me if the measured pKi of CO[C@H]1CCCN(c2ncccc2C2=CCC(c3[nH]c(=O)[nH]c(=O)c3Cc3ccccc3)CC2)C1 (stereo partly drawn) [Example 49] reaches 7 or more?
Result: rule not met

Task: Could you tell me if the measured pKi of CCOc1ccc(C2=CCC(c3[nH]c(=O)[nH]c(=O)c3Cc3ccccc3)CC2)c(Cl)c1F (stereo not drawn) [Example 90] reaches 7 or more?
Result: rule not met

Task: Could you tell me if the measured pKi of CS(=O)(=O)c1ccc(C2=CCC(c3[nH]c(=O)[nH]c(=O)c3Cc3ccccc3)CC2)c(C(F)(F)F)c1 (stereo not drawn) [Example 74] reaches 7 or more?
Result: rule not met

Task: Could you tell me if the measured pKi of O=c1[nH]c(C2CC=C(c3ccc(OCC(F)(F)F)cc3Cl)CC2)c(Cc2ccccc2)c(=O)[nH]1 (stereo not drawn) [Example 87] reaches 7 or more?
Result: rule not met

Task: Could you tell me if the measured pKi of O=c1[nH]c([C@@H]2CC=C(c3ccc(Cl)cc3C(F)(F)F)CC2)c(Cc2ccccc2)c(=O)[nH]1 (single isomer, unassigned) [Example 110] reaches 7 or more?
Result: rule met

* * *

# study target: GR (Homo sapiens, UniProt P04150)
# method summary: GR binding
parameter: pIC50
Just the number, please; pIC50 means minus log10 of the concentration in mol/L.

Task: GET /values?readout=pIC50&item= CNS(=O)(=O)c1cc(C(F)(F)F)ccc1C1=CCC(c2[nH]c(=O)[nH]c(=O)c2Cc2ccccc2)CC1 (stereo not shown) [Example 96]
Result: 5.29

Task: GET /values?readout=pIC50&item= CC(C)Oc1cc(C(F)(F)F)ccc1C1=CCC(c2[nH]c(=O)[nH]c(=O)c2Cc2ccccc2)CC1 (stereo not shown) [Example 59]
Result: 6.87

Task: GET /values?readout=pIC50&item= O=c1[nH]c(C2CC=C(c3ccc(OC(F)F)cc3Cl)CC2)c(Cc2ccccc2)c(=O)[nH]1 (stereo not shown) [Example 108]
Result: 8.27

Task: GET /values?readout=pIC50&item= CN(C)c1ncccc1C1=CCC(c2[nH]c(=O)[nH]c(=O)c2Cc2ccccc2)CC1 (stereo not shown) [Example 118]
Result: 9.12

Task: GET /values?readout=pIC50&item= CS(=O)(=O)c1ccc(C2=CCC(c3[nH]c(=O)[nH]c(=O)c3Cc3ccccc3)CC2)c(Cl)c1 (stereo not shown) [Example 106]
Result: 8.68

Task: GET /values?readout=pIC50&item= O=c1[nH]c(C2CC=C(c3cnc(C(F)(F)F)nc3)CC2)c(Cc2ccccc2)c(=O)[nH]1 (stereo not shown) [Example 72]
Result: 5.72

Task: GET /values?readout=pIC50&item= Cn1cnc2ccc(C3=CCC(c4[nH]c(=O)[nH]c(=O)c4Cc4ccccc4)CC3)cc21 (stereo not shown) [Example 66]
Result: 5.45

* * *

Entries with their measured IC50, system GR (Homo sapiens, UniProt P04150):
Please state the figure in µM; there is no need to write the unit.

Task: Give GR (Homo sapiens, UniProt P04150) IC50 for CN(C)S(=O)(=O)c1cc(C(F)(F)F)ccc1C1=CCC(c2[nH]c(=O)[nH]c(=O)c2Cc2ccccc2)CC1 (stereo not shown)
Result: 2.56

Task: Give GR (Homo sapiens, UniProt P04150) IC50 for O=c1[nH]c(C2CC=C(c3ccc(OCC4CC4)cc3C(F)(F)F)CC2)c(Cc2ccccc2)c(=O)[nH]1 (stereo not shown)
Result: 0.023

Task: Give GR (Homo sapiens, UniProt P04150) IC50 for CCS(=O)(=O)c1cc(F)c(C2=CCC(c3[nH]c(=O)[nH]c(=O)c3Cc3ccccc3)CC2)c(F)c1 (stereo not shown)
Result: 0.0716

Task: Give GR (Homo sapiens, UniProt P04150) IC50 for O=c1[nH]c(C2CC=C(c3cccc4nncn34)CC2)c(Cc2ccccc2)c(=O)[nH]1 (stereo not shown)
Result: 0.483

* * *

# study target: UniProtKB P04150
# method summary: Hep G2 TAT assay: induction of TAT by dexamethasone in HepG2 cells
pKi: −log10 of the molar value.
Returns 1 (yes) if the recorded pKi is greater than or equal to 7, and 0 (no) otherwise.

Task: Could you tell me if the measured pKi of O=c1[nH]c(C2CC=C(c3cccc(Cl)c3C(F)(F)F)CC2)c(Cc2ccccc2)c(=O)[nH]1 (stereo not drawn) reaches 7 or more?
Result: 1 (yes)

Task: Could you tell me if the measured pKi of COc1cc(Cl)ccc1C1=CCC(c2[nH]c(=O)[nH]c(=O)c2Cc2ccccc2)CC1 (stereo not drawn) reaches 7 or more?
Result: 1 (yes)

Task: Could you tell me if the measured pKi of N#Cc1ccc(C2=CCC(c3[nH]c(=O)[nH]c(=O)c3Cc3ccccc3)CC2)c(Cl)c1 (stereo not drawn) reaches 7 or more?
Result: 1 (yes)

Task: Could you tell me if the measured pKi of COc1ccc(C2=CCC(c3[nH]c(=O)[nH]c(=O)c3Cc3ccccc3)CC2)c(Cl)c1 (stereo not drawn) reaches 7 or more?
Result: 1 (yes)

Task: Could you tell me if the measured pKi of O=c1[nH]c(C2CC=C(c3ccc(F)cc3Cl)CC2)c(Cc2ccccc2)c(=O)[nH]1 (stereo not drawn) reaches 7 or more?
Result: 1 (yes)

Task: Could you tell me if the measured pKi of Cc1ccc(C2=CCC(c3[nH]c(=O)[nH]c(=O)c3Cc3ccccc3)CC2)c(N2CCCC2)n1 (stereo not drawn) reaches 7 or more?
Result: 1 (yes)

Task: Could you tell me if the measured pKi of CC(C)Oc1ccc(C2=CCC(c3[nH]c(=O)[nH]c(=O)c3Cc3ccccc3)CC2)c(Cl)c1 (stereo not drawn) reaches 7 or more?
Result: 0 (no)

Task: Could you tell me if the measured pKi of O=c1[nH]c(C2CC=C(c3ccc(C4CC4)cc3C(F)(F)F)CC2)c(Cc2ccccc2)c(=O)[nH]1 (stereo not drawn) reaches 7 or more?
Result: 0 (no)

Task: Could you tell me if the measured pKi of O=c1[nH]c(C2CC=C(c3ccc(OCCO)cc3Cl)CC2)c(Cc2ccccc2)c(=O)[nH]1 (stereo not drawn) reaches 7 or more?
Result: 0 (no)

* * *

# study target: glucocorticoid receptor (Homo sapiens)
# Construct: host or cells: HepG2
# Sequence (P04150 1-777): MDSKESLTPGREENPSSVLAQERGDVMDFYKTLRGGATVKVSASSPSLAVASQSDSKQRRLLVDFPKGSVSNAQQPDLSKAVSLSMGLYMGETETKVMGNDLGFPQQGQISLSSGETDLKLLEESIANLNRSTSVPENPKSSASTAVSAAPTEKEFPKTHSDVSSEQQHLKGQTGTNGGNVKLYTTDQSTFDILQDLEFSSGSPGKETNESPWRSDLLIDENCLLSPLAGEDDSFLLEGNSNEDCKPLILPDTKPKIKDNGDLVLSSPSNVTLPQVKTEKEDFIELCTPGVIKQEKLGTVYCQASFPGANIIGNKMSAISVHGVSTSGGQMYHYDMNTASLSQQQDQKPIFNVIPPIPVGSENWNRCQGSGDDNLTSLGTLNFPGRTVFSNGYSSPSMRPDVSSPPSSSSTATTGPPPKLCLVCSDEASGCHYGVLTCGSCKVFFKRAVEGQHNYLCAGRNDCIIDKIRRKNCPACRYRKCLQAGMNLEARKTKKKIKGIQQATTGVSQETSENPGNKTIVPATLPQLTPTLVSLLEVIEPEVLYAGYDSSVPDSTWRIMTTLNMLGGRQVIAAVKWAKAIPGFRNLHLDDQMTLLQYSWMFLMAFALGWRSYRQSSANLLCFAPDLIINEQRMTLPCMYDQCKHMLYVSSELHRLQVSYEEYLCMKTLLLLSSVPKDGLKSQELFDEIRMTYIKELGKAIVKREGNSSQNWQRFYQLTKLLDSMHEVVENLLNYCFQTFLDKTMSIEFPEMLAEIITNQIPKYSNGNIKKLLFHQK
# method summary: Hep G2 TAT assay: induction of TAT by dexamethasone in HepG2 cells
# Type: cell-based
Hi there, I'd appreciate the recorded pKi for every entry that follows.
Just the number, please; pKi means minus log10 of the concentration in mol/L.

Task: GET /values?readout=pKi&item= CC1(C)CCCN(c2ncccc2C2=CCC(c3[nH]c(=O)[nH]c(=O)c3Cc3ccccc3)CC2)C1 (stereo not shown)
Result: 6.52

Task: GET /values?readout=pKi&item= O=c1[nH]c(C2CC=C(c3cncs3)CC2)c(Cc2ccccc2)c(=O)[nH]1 (stereo not shown)
Result: 5.89

Task: GET /values?readout=pKi&item= Cc1ccccc1C1=CCC(c2[nH]c(=O)[nH]c(=O)c2Cc2ccccc2)CC1 (stereo not shown)
Result: 7.08

Task: GET /values?readout=pKi&item= O=c1[nH]c(C2CC=C(c3cccnc3C(F)(F)F)CC2)c(Cc2cccc(N3CCCC3)n2)c(=O)[nH]1 (stereo not shown)
Result: 6.40
